# Tested on: P. falciparum stage V gametocytes
# Design: BacTiter-Glo ATP luminescence viability of purified stage V gametocytes in 384-well plates, per cent inhibition versus DMSO
# Assay setup: 48 h, 5 µM, inhibitor, % Inhibition
In all, about 13,000 compounds went through this assay and about 3,200 (25%) showed an effect of 50% or more. Some of the results follow.
I'd appreciate it if you could supply % Inhibition values for the items below.
Give bare numbers, in %.

NC(=O)c1ccc2[nH]cc(C3CCN(CC4CCC(NC(=O)/C=C/c5ccc(Cl)c(Cl)c5)CC4)CC3)c2c1 (stereo not drawn) [TCMDC-139886]; 70.38

Would you mind listing % Inhibition for each of the following compounds?
1. O=C(/C=C/c1ccc([N+](=O)[O-])cc1)NC1CCC(CN2CCC(c3c[nH]c4ccccc34)CC2)CC1 (stereo not drawn)
2. O=C(/C=C/c1ccc(C(F)(F)F)cc1)NC1CCC(CN2CCC(c3c[nH]c4ccccc34)CC2)CC1 (stereo not drawn) [TCMDC-139768]
3. O=C(/C=C/c1ccc(C(F)(F)F)cc1)NC1CCC(CN2CCC(c3c[nH]c4ccccc34)CC2)CC1 (stereo not drawn) [TCMDC-139758]
4. Cc1[nH]c(C)c(-c2ccc(Oc3ccc(OC(F)(F)F)cc3)cc2)c(=O)c1Br
5. Cc1cc(=O)c(-c2ccc(Oc3cccc(C(F)(F)F)c3)cc2)c(C)[nH]1
6. O=C1Nc2cccc3c2C1(CCCCN1CCC(c2cc4ccncc4[nH]2)CC1)CCC3 (stereo not drawn)
7. O=C(Nc1ccccc1OC(F)(F)F)NC1CCC(CN2CCC(c3c[nH]c4ccccc34)CC2)CC1 (stereo not drawn) [TCMDC-140203]

Result:
1: 72.83; 2: 87.3; 3: 96.79; 4: 14.7; 5: 48.03; 6: 27.49; 7: -4.21

Would you mind listing % Inhibition for each of the following compounds?
1. O=C(/C=C/c1cccc(Cl)c1)NC1CCC(CN2CCC(c3c[nH]c4ccccc34)CC2)CC1 (stereo not drawn) [TCMDC-139715]
2. O=C(Nc1cc(C(F)(F)F)cc(C(F)(F)F)c1)NC1CCC(CN2CCC(c3c[nH]c4ccccc34)CC2)CC1 (stereo not drawn)
3. O=C(/C=C/c1cccc2ccccc12)NC1CCC(CN2CCC(c3c[nH]c4ccccc34)CC2)CC1 (stereo not drawn) [TCMDC-139706]
4. COc1ccc2nccc([C@@H](O)CN3CCC(NCc4nc5c(cc4Cl)SCC(=O)N5)C(F)C3)c2c1 (stereo partly drawn) [TCMDC-141679]
5. N#Cc1c(Cl)cccc1Oc1ccc(S(=O)(=O)NC2CCC(CN3CCC(c4c[nH]c5ccccc45)CC3)CC2)cc1 (stereo not drawn) [TCMDC-140167]
6. O=C(/C=C/c1cccc(Cl)c1)NC1CCC(CN2CCC(c3c[nH]c4ccccc34)CC2)CC1 (stereo not drawn) [TCMDC-139700]

Result:
101.4
-51.42
-11.81
-19.09
10.9
105.2

Would you mind listing % Inhibition for each of the following compounds?
1. O=C(C=Cc1cccc(Cl)c1Cl)NC1CCC(CN2CCC(c3c[nH]c4ccccc34)CC2)CC1 (stereo not drawn)
2. CC(C)(C)c1cc(/C=C/C(=O)NC2CCC(CN3CCC(c4c[nH]c5ccccc45)CC3)CC2)cc(C(C)(C)C)c1O (stereo not drawn)
3. O=C(/C=C/c1ccc(Cl)c(Cl)c1)NCCCCCN1CCC(c2c[nH]c3ccccc23)C(O)C1 (stereo not drawn) [TCMDC-139656]
4. O=C(Nc1ccccc1OC(F)(F)F)NC1CCC(CN2CCC(c3c[nH]c4ccccc34)CC2)CC1 (stereo not drawn) [TCMDC-140185]
5. O=C(/C=C/c1cccc(F)c1)NC1CCC(CN2CCC(c3c[nH]c4ccccc34)CC2)CC1 (stereo not drawn)
6. O=C(/C=C/c1ccc(Cl)cc1)NC1CCC(CN2CCC(c3c[nH]c4ccccc34)CC2)CC1 (stereo not drawn)
7. O=C(/C=C/c1ccccc1Cl)NC1CCC(CN2CCC(c3c[nH]c4ccccc34)CC2)CC1 (stereo not drawn) [TCMDC-139699]
8. O=C(/C=C/c1cccc2ccccc12)NC1CCC(CN2CCC(c3c[nH]c4ccccc34)CC2)CC1 (stereo not drawn) [TCMDC-139721]

Result:
1. 41.2
2. 105.4
3. -35.83
4. -31.33
5. 74.99
6. 108.5
7. 83.67
8. -23.68

Would you mind listing % Inhibition for each of the following compounds?
1. COc1ccc(C[C@H](N)C(=O)N[C@H]2[C@@H](O)[C@H](n3cnc4c(N(C)C)ncnc43)O[C@@H]2CO)cc1
2. C/C=C1\CN2CC[C@H]1C[C@H]2[C@H](O)c1ccnc2ccc(OC)cc12
3. NC(=O)c1ccc2[nH]cc(C3CCN(CC4CCC(NC(=O)/C=C/c5ccc(Cl)c(Cl)c5)CC4)CC3)c2c1 (stereo not drawn) [TCMDC-139885]
4. COC(=O)c1ccc(CC(C)NCC(O)c2cccc(C(F)(F)F)c2)cc1 (stereo not drawn) [TCMDC-131435]

Result:
[123.8, 1.908, 5.306, 22.12]

----------
# Tested on: P. falciparum stage V gametocytes
# Set-up: BacTiter-Glo ATP luminescence viability of purified stage V gametocytes in 384-well plates, per cent inhibition versus DMSO
# Assay setup: 48 h, 5 µM; inhibitor
In all, about 13,000 compounds went through this assay and about 3,200 (25%) showed an effect of 50% or more. Some of the results follow.
Endpoint: % Inhibition (%)
Numbers only, in %.

CCc1ccccc1N1CCN(CCCCNC(=O)c2ccc(NC(=O)c3ccc(Cl)cc3)cc2)CC1 [TCMDC-138192]; 63.87

Would you mind listing % Inhibition for each of the following molecules?
1. CC(=O)C1(c2ccccc2)CCN(CCC2(c3ccc(Cl)c(Cl)c3)CN(C(=O)c3cccc(Cl)c3)CCO2)CC1 (centres unmarked) [TCMDC-135347]
2. O=C(NCCCCN1CCN(c2cccc3ccccc23)CC1)c1ccc(NC(=O)c2ccc(Cl)cc2)cc1 [TCMDC-138514]
3. Cc1nn(-c2ccccc2)c2sc(C(=O)N(CCCN(C)C)c3nc(-c4ccccc4)cs3)cc12 [TCMDC-125428]
4. CCc1ccccc1N1CCN(CCCC(=O)c2ccc(NC(=O)c3ccc(Cl)cc3)cc2)CC1 [TCMDC-138230]

Result:
1: -30.91; 2: -0.4742; 3: 100.2; 4: -10.32

Would you mind listing % Inhibition for each of the following molecules?
1. FC(F)(F)c1ccc(CSc2ccc3nnc(-c4ccccn4)n3n2)cc1 [TCMDC-125344]
2. CC(C)(C)c1ccc(N2C(N)=NC(N)=NC2(C)C)cc1 [TCMDC-137713]
3. CCCc1ccc(C2CCN(CCCCNC(=O)c3ccc(NC(=O)c4ccc(Cl)cc4)cc3)CC2)cc1 [TCMDC-138358]

Result:
[51.34, 2.693, 87.46]

----------
# System: P. falciparum stage V gametocytes
# Design: BacTiter-Glo ATP luminescence viability of purified stage V gametocytes in 384-well plates, per cent inhibition versus DMSO
# Assay setup: 48 h, 5 µM; inhibitor
About 3,200 (25%) of roughly 13,000 compounds showed an effect of 50% or more. Some of the results follow.
Endpoint: % Inhibition (%)
Give bare numbers, in %.

Cc1cnc(C(=O)Nc2cccc(-c3cccc(-c4nc5ccc(F)cc5[nH]4)c3)c2)cn1; 68.21
CCN(CC)/C(=N/C(=N)NCc1ccc(Cl)cc1Cl)NCCCCCCN/C(=N\C(=N)NCc1ccc(Cl)cc1Cl)N(CC)CC; 120
COC(=O)c1ccc(-c2ccc(C(=O)NCC3CCN(c4nc(N)c5cc(OC)c(OC)cc5n4)CC3)cc2)cc1; 127
N#Cc1cccc(COC(=O)C2=C(COc3ccccc3Cl)NC(=O)NC2c2c[nH]c3cnccc23)c1 (stereo not drawn); 5.465
CCN(CC)/C(=N/C(=N)NCc1cccc(Cl)c1)NCCCCCCN/C(=N\C(=N)NCc1cccc(Cl)c1)N(CC)CC; 122

Would you mind listing % Inhibition for each of the following molecules?
1. COc1ccc(NC(=O)N2CCCN(CCCCCNC(=O)/C=C/c3ccc(Cl)cc3)CC2)cc1Cl
2. CCNc1cc(C(=O)N[C@@H](Cc2ccccc2)[C@H](O)CN[C@@H]2CCc3ccccc32)cc(N2CCCCS2(=O)=O)c1

Result:
-49.97
14.74

Would you mind listing % Inhibition for each of the following molecules?
1. O=C(Nc1ccc(OC2CCN(Cc3ccc(F)cc3)C2)c(Cl)c1)c1ccco1 (stereo not drawn)
2. Cc1cnc(C(=O)Nc2ccc(-c3cccc(-c4nc5ccccc5[nH]4)c3)cc2)cn1
3. CC(C)NCc1ccc(-c2ccc(-c3nc4cc(C(F)(F)F)ccc4[nH]3)s2)cc1.O=C(O)C(F)(F)F
4. Cc1cc(NC(=O)c2cccs2)ccc1OC1CCN(Cc2ccc(C#N)cc2)CC1
5. O=C(Nc1ccc(OC2CCN(Cc3ccc(F)cc3)C2)c(Cl)c1)c1cccs1 (stereo not drawn)
6. Cc1csc(NC(=O)c2cn(-c3ccccc3)nc2-c2cccs2)n1

Result:
1. 61.05
2. -17.4
3. -79.18
4. 61.72
5. 50.68
6. 15.91

Would you mind listing % Inhibition for each of the following molecules?
1. COc1cc2nc(N3CCC(CNC(=O)c4ccc(-c5ccccc5)cc4)CC3)nc(N)c2cc1OC
2. O=C(NCCc1ccccc1)N(Cc1cccc(-c2ccc(CNC3CCCC3)cc2)c1)C1CCN(Cc2ccccc2)CC1
3. NC(=O)C1CCN(Cc2ccc(-c3ccc(-c4nc5cc(C(F)(F)F)ccc5[nH]4)s3)cc2)CC1.O=C(O)C(F)(F)F
4. CN1CCC(N2CCN(c3ccc4c(=O)nc(CCc5cccc(F)c5F)n(CC(=O)N(C)Cc5ccc(-c6ccc(C(F)(F)F)cc6)cc5)c4n3)CC2)CC1
5. CN(Cc1ccccc1)C1CCN(c2cc(NC(=O)c3cccc(F)c3)ccn2)CC1

Result:
1: -6.004; 2: 99.39; 3: -37.37; 4: 105.9; 5: -5.844

Would you mind listing % Inhibition for each of the following molecules?
1. Nc1cccc(CNCc2ccc(-c3ccc(-c4nc5cc(C(F)(F)F)ccc5[nH]4)s3)cc2)c1.O=C(O)C(F)(F)F
2. O=C(c1cccs1)N(Cc1cccc(-c2ccc(CNCCc3ccccc3)cc2)c1)C1CCN(Cc2ccccc2)CC1
3. COc1cc(CCNC(=N)/C=C/c2ccc(Cl)cc2)ccc1Cl
4. Cc1cc(N[C@@H](CC(C)C)C(=O)Nc2ccccc2)nc(NCc2ccccc2C)n1
5. O=C(O)C(F)(F)F.OCC1CCN(Cc2ccc(-c3ccc(-c4nc5cc(C(F)(F)F)ccc5[nH]4)s3)cc2)CC1
6. O=C(Nc1ccc(Cl)cc1)Nc1cccc(-c2cccc(-c3nc4ccc(F)cc4[nH]3)c2)c1
7. CC(=O)Nc1cccc(C(=O)Nc2cccc(-c3ccc(-c4nc5ccc(F)cc5[nH]4)cc3)c2)c1

Result:
1: -86.12; 2: 66.5; 3: 106.7; 4: -40.4; 5: 54.7; 6: -67.78; 7: -25.67
